- method-summary: Inhibition of calcium ionophore (A-23187)-stimulated LTB4 formation in human neutrophil assay
property-name: pIC50
Note on units: pIC50 is unitless, being -log10 of a concentration expressed in mol/L.

C/C(=N\OC(c1ccc(OCc2ccc3cc(F)ccc3n2)cc1)C1CCCCC1)C(=O)O (centres undefined) :: 7.70
C/C(CCCCCC(=O)O)=N\OC(c1ccc(OCc2ccc3ccccc3n2)cc1)C1CCCCC1 (centres undefined) :: 7.77
C/C(=N\OC(c1ccc(OCc2nc(-c3ccccc3)cs2)cc1)C1CCCCC1)C(=O)O (centres undefined) :: 7.70
C/C(=N\OC(c1ccc(OCc2nc3ccccc3s2)cc1)C1CCCCC1)C(=O)O (centres undefined) :: 7.22
O=C(O)c1ccc(/C=N/OC(c2ccc(OCc3ccc4ccccc4n3)cc2)C2CCCCC2)cc1 (centres undefined) :: 7.51
O=C(O)/C(=N\OC(c1ccc(OCc2ccc3ccccc3n2)cc1)C1CCCCC1)c1cccs1 (centres undefined) :: 7.64
O=C(O)/C=N/OC(c1ccc(OCc2nc3cccnc3s2)cc1)C1CCCCC1 (centres undefined) :: 7.57
C/C(=N\OC(c1ccc(OCc2ccc3ccccc3n2)c(C)c1)C1CCCCC1)C(=O)O (centres undefined) :: 7.70

Next:
Quickly give me recorded pIC50 for C/C(=N\OCC(c1ccc(OCc2ccc3ccccc3n2)cc1)C1CCCCC1)C(=O)O (centres undefined)
7.70

====

- system: Polyunsaturated fatty acid 5-lipoxygenase (Homo sapiens)
- Sequence (P09917 whole entry): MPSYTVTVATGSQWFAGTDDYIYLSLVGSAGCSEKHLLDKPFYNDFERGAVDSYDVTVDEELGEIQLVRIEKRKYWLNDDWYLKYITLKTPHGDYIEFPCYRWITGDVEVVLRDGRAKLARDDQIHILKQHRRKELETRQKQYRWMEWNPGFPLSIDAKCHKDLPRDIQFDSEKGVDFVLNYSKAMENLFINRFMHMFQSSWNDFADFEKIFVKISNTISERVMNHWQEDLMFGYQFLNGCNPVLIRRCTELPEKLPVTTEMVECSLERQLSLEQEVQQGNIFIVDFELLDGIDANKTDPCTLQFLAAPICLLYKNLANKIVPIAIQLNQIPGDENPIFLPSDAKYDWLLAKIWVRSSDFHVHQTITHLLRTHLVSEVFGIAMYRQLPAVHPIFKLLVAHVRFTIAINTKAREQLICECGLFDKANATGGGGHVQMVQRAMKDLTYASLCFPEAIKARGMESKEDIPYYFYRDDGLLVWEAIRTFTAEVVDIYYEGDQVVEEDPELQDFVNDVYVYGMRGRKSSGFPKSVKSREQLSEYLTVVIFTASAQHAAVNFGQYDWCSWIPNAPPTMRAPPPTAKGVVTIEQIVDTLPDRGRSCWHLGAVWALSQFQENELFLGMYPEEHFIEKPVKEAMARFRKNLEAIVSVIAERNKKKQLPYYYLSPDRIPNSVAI
- method-summary: Inhibition of calcium ionophore (A-23187)-stimulated LTB4 formation in human neutrophil assay
property-name: pIC50
Note on units: pIC50 is unitless, being -log10 of a concentration expressed in mol/L.

Quickly give me recorded pIC50 for C/C(=N\OC(c1ccc(OCc2ccc3ccccc3n2)cc1)C1CCCCC1)C(=O)O (stereo unspecified)
7.82

====

In this section we review reported pIC50 values for a set of compounds.
- method-summary: Inhibition of calcium ionophore (A-23187)-stimulated LTB4 formation in human neutrophil assay
Note on units: pIC50 is unitless, being -log10 of a concentration expressed in mol/L.

C/C(=N\OC(c1ccc(OCc2cscn2)cc1)C1CCCCC1)C(=O)O (centres undefined) :: 6.44

Quickly give me recorded pIC50 for C/C(CCC(=O)O)=N\OC(c1ccc(OCc2ccc3ccccc3n2)cc1)C1CCCCC1 (centres undefined)
7.77

Quickly give me recorded pIC50 for C/C(=N\OC(c1ccc(OCc2ccc3ccccc3n2)cc1SC1CCCCC1)C1CCCCC1)C(=O)O (centres undefined)
7.05

Quickly give me recorded pIC50 for `C/C(=N\O[C@H](c1ccc(OCc2ccc3ccccc3n2)cc1)C1CCCCC1)C(=O)O`
7.47

Quickly give me recorded pIC50 for O=C(O)/C=N/OC(CC1CCCCC1)c1ccc(OCc2ccc3ccccc3n2)cc1 (centres undefined)
7.57

Quickly give me recorded pIC50 for O=C(O)/C(CCc1ccccc1)=N/OC(c1ccc(OCc2ccc3ccccc3n2)cc1)C1CCCCC1 (centres undefined)
7.70

Quickly give me recorded pIC50 for O=C(O)/C=N/OC(c1ccc(OCc2ccccn2)cc1)C1CCCCC1 (centres undefined)
6.82

Quickly give me recorded pIC50 for O=C(O)/C=N/OC(c1ccc(/C=C/c2ccc3ccccc3n2)cc1)C1CCCCC1 (centres undefined)
7.04

Quickly give me recorded pIC50 for Cc1cc(C(O/N=C/C(=O)O)C2CCCCC2)ccc1OCc1ccc2ccccc2n1 (centres undefined)
7.70

Quickly give me recorded pIC50 for O=C(O)/C=N/OC(c1ccc(OCc2ccc3ccccc3n2)cc1)C1C2CC3CC(C2)CC1C3 (centres undefined)
7.68

Quickly give me recorded pIC50 for CCCCC(CCCC)C(O/N=C/C(=O)O)c1ccc(OCc2ccc3ccccc3n2)cc1 (centres undefined)
8.00

Quickly give me recorded pIC50 for O=C(O)/C=N/OC(c1ccc(OCc2csc(-c3ccc(Cl)cc3)n2)cc1)C1CCCCC1 (centres undefined)
6.31

Quickly give me recorded pIC50 for C/C(=N\OC(Cc1ccccc1)c1ccc(OCc2ccc3ccccc3n2)cc1)C(=O)O (centres undefined)
7.52

Quickly give me recorded pIC50 for O=C(O)/C=N/OC(c1ccc(OCc2ccc3ccccc3n2)cc1)C1CCCCC1 (centres undefined)
7.77

Quickly give me recorded pIC50 for O=C(O)/C(Cc1ccc(O)cc1)=N/OC(c1ccc(OCc2ccc3ccccc3n2)cc1)C1CCCCC1 (centres undefined)
7.37

Quickly give me recorded pIC50 for O=C(O)/C=N/OC(c1ccc(OCc2cc(-c3ccccc3)on2)cc1)C1CCCCC1 (centres undefined)
6.85

Quickly give me recorded pIC50 for C/C(=N\OC(c1ccc(OCc2ccc3ccccc3n2)c(Cl)c1)C1CCCCC1)C(=O)O (centres undefined)
7.57

Quickly give me recorded pIC50 for O=C(O)/C(CSCCO)=N/OC(c1ccc(OCc2ccc3ccccc3n2)cc1)C1CCCCC1 (centres undefined)
6.74

Quickly give me recorded pIC50 for C/C(=N\OC(c1cc2cc(OCc3ccc4ccccc4n3)ccc2s1)C1CCCCC1)C(=O)O (centres undefined)
7.48
